- Test system: NCI-H23 lung
- protocol.notes: NCI-60 one-dose screen, 48 h (100 = growth as untreated, 0 = no growth, -100 = all killed)
- study.conditions: 10 µM unless noted
- Description: Growth inhibition of the NCI-H23 human Non-Small Cell Lung tumor cell line is measured as a screen for anti-cancer activity. Cells are grown in 96 well plates and exposed to the test compound for 48 hours. Compounds are tested at a single concentration, which is 10^-5 M for most compounds. The reported endpoint is percent growth (GI% or GIPRCNT), where numbers from 0 - 100% represent growth inhibition, and numbers from -100% - 0 represent cell death. […]
This is part of a sample that, as a whole, favours compounds with a hit. Of some 83,000 tested, about 20% had one in any assay. Active and inactive are the calls of the source. How the source made its calls: active means growth percent below 10; inactive means the rest.

[
  {
    "compound": "C[C@]12CC[C@H](O)CC1=CC[C@@H]1[C@@H]2CC[C@]2(C)C(=O)CC[C@@H]12",
    "growth": "96% (inactive)"
  },
  {
    "compound": "Cc1c(N)nc([C@H](CC(N)=O)NC[C@H](N)C(N)=O)nc1C(=O)N[C@H](C(=O)N[C@H](C)[C@@H](O)[C@H](C)C(=O)N[C@H](C(=O)NCCc1nc(-c2nc(C(=O)NCCC[S+](C)C)cs2)cs1)[C@@H](C)O)C(OC1OC(CO)C(O)C(O)C1OC1OC(CO)C(O)C(OC(N)=O)C1O)c1cnc[nH]1 (some centres undefined)",
    "growth": "37.9% [2.5 µM] (inactive)"
  },
  {
    "compound": "C[C@H]1CCC/C=C/[C@@H]2C[C@H](O)C[C@H]2[C@H](O)/C=C/C(=O)O1",
    "growth": "-1.79% (active)"
  },
  {
    "compound": "CN1CCN(c2ccc([N+](=O)[O-])c3no[n+]([O-])c23)CC1",
    "growth": "-24.1% (active)"
  }
]
